- target under test: AOC1 (Homo sapiens (Human), UniProt P19801)
- Sequence (P19801 20-751): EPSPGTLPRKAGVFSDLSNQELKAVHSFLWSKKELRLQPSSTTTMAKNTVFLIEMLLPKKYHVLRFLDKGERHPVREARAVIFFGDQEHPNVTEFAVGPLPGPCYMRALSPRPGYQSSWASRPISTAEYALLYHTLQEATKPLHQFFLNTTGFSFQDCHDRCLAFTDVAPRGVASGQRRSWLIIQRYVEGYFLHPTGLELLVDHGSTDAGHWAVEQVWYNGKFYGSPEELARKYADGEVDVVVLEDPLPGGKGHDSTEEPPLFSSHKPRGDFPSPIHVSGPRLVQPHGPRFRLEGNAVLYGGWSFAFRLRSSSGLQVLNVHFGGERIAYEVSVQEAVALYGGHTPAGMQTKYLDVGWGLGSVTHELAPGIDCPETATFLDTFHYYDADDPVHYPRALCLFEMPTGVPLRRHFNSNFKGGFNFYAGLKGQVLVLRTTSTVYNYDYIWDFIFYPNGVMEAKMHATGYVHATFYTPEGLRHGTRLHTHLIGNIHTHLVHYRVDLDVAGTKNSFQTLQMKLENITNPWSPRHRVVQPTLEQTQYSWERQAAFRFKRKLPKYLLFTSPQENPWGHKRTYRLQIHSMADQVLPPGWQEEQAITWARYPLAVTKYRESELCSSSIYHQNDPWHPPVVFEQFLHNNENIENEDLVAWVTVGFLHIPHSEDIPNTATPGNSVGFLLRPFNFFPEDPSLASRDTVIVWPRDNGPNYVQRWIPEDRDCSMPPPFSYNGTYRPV
- test summary: AOC1 biochemical assay (Amplex Red)
- recorded conditions: comparison table; read-out: IC50 AOC1
Parameter: IC50. Scope: all listed entries.

compound: COC1CN(S(=O)(=O)c2ccc(OC/C(=C/F)CN)nc2)C1
target under test: AOC1 (Homo sapiens (Human), UniProt P19801)
unit of measurement: nM
operator symbol: >
IC50: 50000
//
compound: NC/C(=C\F)COc1cnc(N2CC[C@H](O)C2)nc1 [Example 6 of WO 2018/027892, reference compound]
target under test: AOC1 (Homo sapiens (Human), UniProt P19801)
unit of measurement: nM
operator symbol: =
IC50: 1170
//
compound: CN(C)S(=O)(=O)c1ccc(OC/C(=C/F)CN)cc1 [Compound 14 of WO 2013/163675, reference compound]
target under test: AOC1 (Homo sapiens (Human), UniProt P19801)
unit of measurement: nM
operator symbol: >
IC50: 50000
//
compound: CO[C@H]1CCN(c2ncc(OC/C(=C/F)CN)cn2)C1 [Example 5 of WO 2018/027892, reference compound]
target under test: AOC1 (Homo sapiens (Human), UniProt P19801)
unit of measurement: nM
operator symbol: =
IC50: 268
//
compound: NC/C(=C\F)COc1cnc(N2CCC(O)CC2)nc1 [Example 2 of WO 2018/027892, reference compound]
target under test: AOC1 (Homo sapiens (Human), UniProt P19801)
unit of measurement: nM
operator symbol: =
IC50: 269

###

Here the recorded IC50 is given for each entry.
- target under test: human AOC3 enzyme (Homo sapiens (Human))
- Sequence (Q16853 whole entry): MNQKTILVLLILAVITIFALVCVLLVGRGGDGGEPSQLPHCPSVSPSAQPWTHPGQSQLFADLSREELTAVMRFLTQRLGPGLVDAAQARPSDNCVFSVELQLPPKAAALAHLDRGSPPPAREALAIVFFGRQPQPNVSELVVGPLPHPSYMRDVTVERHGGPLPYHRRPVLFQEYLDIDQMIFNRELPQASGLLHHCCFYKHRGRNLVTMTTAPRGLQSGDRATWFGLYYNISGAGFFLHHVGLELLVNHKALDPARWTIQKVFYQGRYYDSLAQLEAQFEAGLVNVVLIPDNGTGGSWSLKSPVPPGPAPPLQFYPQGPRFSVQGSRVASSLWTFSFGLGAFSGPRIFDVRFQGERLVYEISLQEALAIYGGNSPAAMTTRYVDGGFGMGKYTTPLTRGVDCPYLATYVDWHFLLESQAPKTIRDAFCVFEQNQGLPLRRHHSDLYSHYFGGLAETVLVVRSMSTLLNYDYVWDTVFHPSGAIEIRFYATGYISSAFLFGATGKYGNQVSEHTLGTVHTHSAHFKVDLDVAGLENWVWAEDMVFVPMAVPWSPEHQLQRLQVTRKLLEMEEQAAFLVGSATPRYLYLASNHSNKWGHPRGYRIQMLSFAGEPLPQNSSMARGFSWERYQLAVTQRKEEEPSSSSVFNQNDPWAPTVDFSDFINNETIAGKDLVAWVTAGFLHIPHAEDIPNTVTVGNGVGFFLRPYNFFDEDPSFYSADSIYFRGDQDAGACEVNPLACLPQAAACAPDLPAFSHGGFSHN
- test summary: AOC3 biochemical assay (MAO-Glo)
- recorded conditions: comparison table; read-out: IC50 AOC3

compound: CN(C)S(=O)(=O)c1ccc(OC/C(=C/F)CN)cc1 [Compound 14 of WO 2013/163675, reference compound]
target under test: human AOC3 enzyme (Homo sapiens (Human))
unit of measurement: nM
IC50: 8
--
compound: COC1CCN(S(=O)(=O)c2ccc(OC/C(=C/F)CN)nc2)C1.O=C(O)C(F)(F)F (stereo not shown)
target under test: human AOC3 enzyme (Homo sapiens (Human))
unit of measurement: nM
IC50: 26
--
compound: COC1CN(S(=O)(=O)c2ccc(OC/C(=C/F)CN)nc2)C1
target under test: human AOC3 enzyme (Homo sapiens (Human))
unit of measurement: nM
IC50: 20
--
compound: COC1CN(S(=O)(=O)c2ccc(OC/C(=C/F)CN)cc2)C1 [Reference compound A, reference compound]
target under test: human AOC3 enzyme (Homo sapiens (Human))
unit of measurement: nM
IC50: 13

###

- target under test: human AOC3 enzyme (Homo sapiens (Human))
- test summary: AOC3 biochemical assay (MAO-Glo)
- recorded conditions: read-out: AOC3 IC50
Structures can show the parent of a compound that is named as a salt.
log10 of IC50: recorded values
measurement kind: log10 of IC50 (log10 of the value in nM)

compound: NC/C(=C\F)COc1ccc(S(=O)(=O)N2CC[C@H](C(N)=O)C2)cn1
data value: 1.32

compound: CCNC(=O)CC1CCN(S(=O)(=O)c2ccc(OC/C(=C/F)CN)nc2)CC1
data value: 1.51

compound: CN(C)C(=O)C1CCN(S(=O)(=O)c2ccc(OC/C(=C/F)CN)nc2)CC1
data value: 1.58

compound: NC/C(=C\F)COc1ccc(S(=O)(=O)N2CC(C3CCN(C(=O)C4CC4)CC3)C2)cn1
data value: 1.23

compound: CCC(=O)NC1CCN(S(=O)(=O)c2ccc(OC/C(=C/F)CN)nc2)CC1
data value: 1.52

compound: COCCNC(=O)[C@H]1[C@@H]2CN(S(=O)(=O)c3ccc(OC/C(=C/F)CN)nc3)C[C@@H]21
data value: 1.36

compound: NC/C(=C\F)COc1ccc(S(=O)(=O)N2CCC(CC(=O)O)CC2)cn1 [Example 54, trifluoroacetate]
data value: 2.49

compound: NC/C(=C\F)COc1ccc(S(=O)(=O)N2CCC(C(=O)N3CCC3)CC2)cn1
data value: 1.63

compound: CNC(=O)[C@H]1[C@@H]2CN(S(=O)(=O)c3ccc(OC/C(=C/F)CN)nc3)C[C@@H]21
data value: 1.08

compound: NC/C(=C\F)COc1ccc(S(=O)(=O)N2CCC(O)(C(F)(F)F)CC2)cn1
data value: 1.30

compound: NC/C(=C\F)COc1ccc(S(=O)(=O)N2CCCC2)cn1
data value: 1.11

compound: CC1(C(=O)O)CCN(S(=O)(=O)c2ccc(OC/C(=C/F)CN)nc2)CC1
data value: 3.43

compound: CC1(C(N)=O)CCN(S(=O)(=O)c2ccc(OC/C(=C/F)CN)nc2)CC1
data value: 1.41

compound: NC/C(=C\F)COc1ccc(S(=O)(=O)N2CC[C@@H](C(N)=O)C2)cn1
data value: 1.18

compound: COC(=O)C1(C)CCN(S(=O)(=O)c2ccc(OC/C(=C/F)CN)nc2)CC1
data value: 1.18

compound: NC/C(=C\F)COc1ccc(S(=O)(=O)N2CCC(CC(N)=O)CC2)cn1
data value: 1.32

compound: NC/C(=C\F)COc1ccc(S(=O)(=O)N2CCC2)cn1
data value: 1.28
